Provenance of the data: patent US20240132624A1

target: T1, human FcRn/b2M (human, UniProt P61769 21-119, biotinylated)
T1 construct: bought recombinant biotinylated protein (ACRO FCM-H82W4 or Immunitrack ITF01); also called hFcRn; hFcRn/hb2M
T1 sequence (chain, as listed by the source limits assumed, chain 1 of 2): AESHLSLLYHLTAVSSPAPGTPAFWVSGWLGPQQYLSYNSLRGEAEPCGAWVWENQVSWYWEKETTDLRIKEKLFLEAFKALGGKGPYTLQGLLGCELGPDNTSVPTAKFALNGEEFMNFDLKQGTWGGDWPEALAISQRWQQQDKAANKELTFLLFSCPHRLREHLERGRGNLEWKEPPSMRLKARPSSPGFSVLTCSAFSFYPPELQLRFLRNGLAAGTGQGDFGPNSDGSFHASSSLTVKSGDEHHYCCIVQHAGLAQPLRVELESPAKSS
T1 sequence (P61769 21-119 limits assumed, chain 2 of 2): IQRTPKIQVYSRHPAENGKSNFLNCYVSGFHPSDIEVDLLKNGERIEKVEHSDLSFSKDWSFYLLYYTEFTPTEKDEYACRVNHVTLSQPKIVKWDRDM
testDetails: SPR off-rate; pH 7.4 vs pH 6.0;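 note: surface plasmon resonance with diluted periplasmic extracts flowed over ligand surfaces, 120 s association and 600–3600 s dissociation at 25 °C, running buffer containing 150 mM NaCl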
Each entry gets -1 if its kd ratio pH 7.4/6.0 stays under 40, and 1 if its kd ratio pH 7.4/6.0 is 40 or above.

[
  {
    "binder": "T0263018B11 S30K (VHH, name in Kabat numbering, FLAG3-His6 tagged) VHH: EVQLVESGGGVVQPGGSLRLSCAASGFTFKSYAMYWVRQAPGKGLEWVSAISSGGGSTDYADSVKGRFTISRDNSKNTLYLQMNSLRPEDTALYYCAADTLYTSLTWYSYWGQGTLVTVSS",
    "assignedClass": -1
  },
  {
    "binder": "T0263018B11 S56H (VHH, name in Kabat numbering, FLAG3-His6 tagged) VHH: EVQLVESGGGVVQPGGSLRLSCAASGFTFSSYAMYWVRQAPGKGLEWVSAISSGGGHTDYADSVKGRFTISRDNSKNTLYLQMNSLRPEDTALYYCAADTLYTSLTWYSYWGQGTLVTVSS",
    "assignedClass": -1
  },
  {
    "binder": "T0263018B11 G26S (VHH, name in Kabat numbering, FLAG3-His6 tagged) VHH: EVQLVESGGGVVQPGGSLRLSCAASSFTFSSYAMYWVRQAPGKGLEWVSAISSGGGSTDYADSVKGRFTISRDNSKNTLYLQMNSLRPEDTALYYCAADTLYTSLTWYSYWGQGTLVTVSS",
    "assignedClass": 1
  },
  {
    "binder": "T0263018B11 T57P (VHH, name in Kabat numbering, FLAG3-His6 tagged) VHH: EVQLVESGGGVVQPGGSLRLSCAASGFTFSSYAMYWVRQAPGKGLEWVSAISSGGGSPDYADSVKGRFTISRDNSKNTLYLQMNSLRPEDTALYYCAADTLYTSLTWYSYWGQGTLVTVSS",
    "assignedClass": -1
  },
  {
    "binder": "T0263018B11 T28Y (VHH, name in Kabat numbering, FLAG3-His6 tagged) VHH: EVQLVESGGGVVQPGGSLRLSCAASGFYFSSYAMYWVRQAPGKGLEWVSAISSGGGSTDYADSVKGRFTISRDNSKNTLYLQMNSLRPEDTALYYCAADTLYTSLTWYSYWGQGTLVTVSS",
    "assignedClass": 1
  }
]
